- assay-target: cysteines in MDA-MB-231 and Ramos cells (Homo sapiens, UniProt Q9NTX5)
- Sequence (Q9NTX5 whole entry, the tested form may be a part): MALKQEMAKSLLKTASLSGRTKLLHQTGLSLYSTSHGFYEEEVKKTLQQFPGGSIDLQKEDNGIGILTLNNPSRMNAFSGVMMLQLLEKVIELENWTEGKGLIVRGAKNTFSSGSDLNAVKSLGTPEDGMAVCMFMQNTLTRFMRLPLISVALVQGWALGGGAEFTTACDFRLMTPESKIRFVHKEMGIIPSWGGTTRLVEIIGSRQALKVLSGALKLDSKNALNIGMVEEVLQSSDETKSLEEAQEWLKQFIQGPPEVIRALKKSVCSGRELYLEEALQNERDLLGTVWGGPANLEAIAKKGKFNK
- procedure-text: Competitive isoTOP-ABPP in situ (fragment-treated cells)
- Format: cell-based
- condition-label: 200 μM, insitu, 231
Give isoTOP-ABPP ratio Q9NTX5_C133 for every item shown.

Case O=C(CCl)N1CCN(S(=O)(=O)c2ccccc2F)CC1 , cysteines in MDA-MB-231 and Ramos cells (Homo sapiens, UniProt Q9NTX5), isoTOP-ABPP ratio Q9NTX5_C133 recorded as 1.6

Case CC(C)CCOCCNC(=O)CCl , cysteines in MDA-MB-231 and Ramos cells (Homo sapiens, UniProt Q9NTX5), isoTOP-ABPP ratio Q9NTX5_C133 recorded as 1.5

Case O=C(CCl)NC12CC3CC(CC(C3)C1)C2 , cysteines in MDA-MB-231 and Ramos cells (Homo sapiens, UniProt Q9NTX5), isoTOP-ABPP ratio Q9NTX5_C133 recorded as 1.1

Case O=C(CCl)NC(=O)NC12CC3CC(CC(C3)C1)C2 , cysteines in MDA-MB-231 and Ramos cells (Homo sapiens, UniProt Q9NTX5), isoTOP-ABPP ratio Q9NTX5_C133 recorded as 1.2

Case O=C(CCl)NCCc1c[nH]c2ccccc12 , cysteines in MDA-MB-231 and Ramos cells (Homo sapiens, UniProt Q9NTX5), isoTOP-ABPP ratio Q9NTX5_C133 recorded as 1.1

Case CC1CCc2ccccc2N1C(=O)CCl (stereo not drawn) , cysteines in MDA-MB-231 and Ramos cells (Homo sapiens, UniProt Q9NTX5), isoTOP-ABPP ratio Q9NTX5_C133 recorded as 4.2
